Exercise: for every item that follows, state its recorded kon.
- Assay target: T1, human 5T4-His protein (human, UniProt Q13641 32-355)
- T1 construct: also called recombinant 5T4 protein (human 5T4-his tag); human 5T4 protein; not shown: His tag
- T1 sequence (looked up): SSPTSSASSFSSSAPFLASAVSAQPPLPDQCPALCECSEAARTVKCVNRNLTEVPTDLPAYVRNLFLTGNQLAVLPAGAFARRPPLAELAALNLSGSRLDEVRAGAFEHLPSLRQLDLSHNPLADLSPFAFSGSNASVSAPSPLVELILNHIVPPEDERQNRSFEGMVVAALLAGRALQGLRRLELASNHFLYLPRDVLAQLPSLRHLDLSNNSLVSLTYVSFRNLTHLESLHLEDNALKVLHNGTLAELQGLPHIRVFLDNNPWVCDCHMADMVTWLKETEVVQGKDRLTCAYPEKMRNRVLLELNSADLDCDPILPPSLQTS
- Method notes: SPR Biacore, Protein A capture
Answers are plain numbers, in M⁻¹ s⁻¹.

// known answers, use as guide
Binder	kon (M⁻¹ s⁻¹)
393E9_hVH2_hVL1 (antibody, V domains shown, humanized) VH: EVQLVESGGGLIQPGGSLRLSCAASGFTFTDYYMSWVRQPPGKGLEWVGFIRNKGNGYTTENSASVKGRFTISRDNSKSTLYLQMNSLRAEDTAVYYCARYRGNPHYAMDYWGQGTLVTVSS VL: DIVLTQSPDSLAVSLGERATINCRASESVEFYGTSFLQWYQQKPGQPPKLLIYGASNVESGVPDRFSGSGSGTDFTLTISSLQAEDIAVYFCQQSRKVPSTFGGGTKVEIK	190000
393E9 chimeric antibody (antibody, V domains shown, chimeric mAb) VH: EVKLVESGGGLVQPGGSLSLSCAASGFTFTDYYMSWVRQPPGKALEWLGFIRNKGNGYTTENSASVKGRFTISRDNSQSILYLQMNALRAEDSATYYCARYRGNPHYAMDYWGQGTSVTVSS VL: DIVLTQFPASLAVSLGQRATISCRASESVEFYGTSFLQWYQQKPGQPPKLLIYGASNVESGVPARFSGSGSGTDFSLSIHPVEEDDIAMYFCQQSRKVPSTFGGGTKLEIK	231000
393E9_hVH2_hVL2 (antibody, V domains shown, humanized) VH: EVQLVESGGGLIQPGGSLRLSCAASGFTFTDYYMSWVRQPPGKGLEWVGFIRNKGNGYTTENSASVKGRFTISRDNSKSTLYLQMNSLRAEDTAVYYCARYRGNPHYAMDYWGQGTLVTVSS VL: EIVLTQSPATLSVSPGERATLSCRASESVEFYGTSFLQWYQQKPGQAPRLLIYGASNVESGIPARFSGSGSGTEFTLTISSLQSEDIAVYFCQQSRKVPSTFGGGTKVEIK	201000

// input: 2 binders below; output: kon for each
1. 393E9_hVH5_hVL3 (antibody, V domains shown, humanized; also called Hu393E9-53) VH: EVQLVESGGGLVQPGRSLRLSCTASGFTFTDYYMSWVRQAPGKGLEWVGFIRNKGNGYTTENSASVKGRFTISRDNSKSILYLQMNSLKTEDTAVYYCARYRGNPHYAMDYWGQGTLVTVSS VL: DIQLTQSPSSLSASVGDRVTITCRASESVEFYGTSFLQWYQQKPGKAPKLLIYGASNVESGVPSRFSGSGSGTDFTLTISSLQPEDIATYFCQQSRKVPSTFGGGTKVEIK
2. 393E9_hVH2_hVL3 (antibody, V domains shown, humanized) VH: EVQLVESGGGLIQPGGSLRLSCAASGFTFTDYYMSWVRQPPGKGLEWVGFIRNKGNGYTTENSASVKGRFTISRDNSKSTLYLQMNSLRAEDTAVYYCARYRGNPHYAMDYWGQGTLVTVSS VL: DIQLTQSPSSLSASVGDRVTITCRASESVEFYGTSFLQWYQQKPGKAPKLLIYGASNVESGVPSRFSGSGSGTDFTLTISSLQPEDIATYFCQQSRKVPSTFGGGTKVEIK

Completion:
170000
174000
